ASSAYED TARGET: human glucocorticoid receptor (Homo sapiens, UniProt P04150)
Construct: purified human recombinant full-length glucocorticoid receptor (2 nM); purchased Invitrogen Part # 2893
Sequence (P04150 whole entry): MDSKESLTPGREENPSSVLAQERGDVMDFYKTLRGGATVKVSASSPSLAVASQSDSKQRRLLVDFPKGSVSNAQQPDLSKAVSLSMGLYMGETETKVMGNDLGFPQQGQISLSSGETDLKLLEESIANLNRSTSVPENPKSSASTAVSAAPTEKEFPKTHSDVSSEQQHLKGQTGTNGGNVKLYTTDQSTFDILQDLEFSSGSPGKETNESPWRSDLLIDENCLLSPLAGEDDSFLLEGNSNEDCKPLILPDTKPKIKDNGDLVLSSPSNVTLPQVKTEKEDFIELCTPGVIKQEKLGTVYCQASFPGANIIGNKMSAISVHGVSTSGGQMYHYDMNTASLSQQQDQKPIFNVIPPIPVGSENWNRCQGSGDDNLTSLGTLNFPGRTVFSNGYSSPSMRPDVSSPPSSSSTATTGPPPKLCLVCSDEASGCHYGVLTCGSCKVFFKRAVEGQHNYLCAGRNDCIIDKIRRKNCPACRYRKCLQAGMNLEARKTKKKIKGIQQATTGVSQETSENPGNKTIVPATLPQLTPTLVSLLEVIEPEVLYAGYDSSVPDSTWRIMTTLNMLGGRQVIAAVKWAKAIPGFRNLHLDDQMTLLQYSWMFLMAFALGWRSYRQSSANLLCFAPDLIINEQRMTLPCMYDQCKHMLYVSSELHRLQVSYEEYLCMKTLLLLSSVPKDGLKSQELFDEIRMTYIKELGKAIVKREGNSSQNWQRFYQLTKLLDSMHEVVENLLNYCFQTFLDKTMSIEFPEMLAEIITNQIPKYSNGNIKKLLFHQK
PROTOCOL DESCRIPTION: Glucocorticoid Receptor Binding Assay (I), fluorescence polarization competitor kit (Fluormone GS Red)
PROTOCOL CONDITIONS: purified human recombinant full-length GR
OBSERVED PROPERTY: Ki (nM)

Below, 10 molecules whose answers are already recorded.
CC(CNS(=O)(=O)CC(F)(F)F)C(c1ccccc1)c1ccc2c(cnn2-c2ccc(F)cc2)c1 (single isomer, unassigned) [Example 91C]	2.8
CC(C)CC(c1ccc2c(cnn2-c2ccc(F)cc2)c1)C(C)(C)CNC(=O)N(C)C(C)(C)C (centres unmarked)	28
CC(C)CC(c1ccc2c(cnn2-c2ccc(F)cc2)c1)C(C)(C)CNC(=O)N[C@H]1CCc2ccccc21 (some centres unmarked) [Example 71A]	5.8
CC(CNC(=O)CC(F)(F)F)C(c1ccccc1)c1ccc2c(cnn2-c2ccc(F)cc2)c1 (single isomer, unassigned) [Example 90A]	2.3
CC(C)(CNC(=O)Nc1nccs1)C(C)(C)c1ccc2c(cnn2-c2ccc(F)cc2)c1	16
CC(C)CC(c1ccc2c(cnn2-c2ccc(F)cc2)c1)C(C)(C)CNC(=O)N1CCCC(C)(C)C1 (centres unmarked)	8.5
CC(C)CC(c1ccc2c(cnn2-c2ccc(F)cc2)c1)C(C)(C)CNC(=O)N1CCC[C@@H]1CO (some centres unmarked)	3.2
CC(C)CC(c1ccc2c(cnn2-c2ccc(F)cc2)c1)C(C)(C)CNC(=O)N1CC(N)C1 (centres unmarked)	11
CC(C)CC(c1ccc2c(cnn2-c2ccc(F)cc2)c1)C(C)(C)CNC(=O)Nc1ccccc1 (centres unmarked)	7.5
CC(CNC(=O)CC(F)(F)F)C(c1ccccc1)c1ccc2c(cnn2-c2ccc(F)cc2)c1 (single isomer, unassigned) [Example 90C]	2.4

I: CC(C)C(c1ccc2c(cnn2-c2ccc(F)cc2)c1)C(C)(C)CNC(=O)NC(C)(C)C (centres unmarked)
II: CC(C)CC(c1ccc2c(cnn2-c2ccc(F)cc2)c1)C(C)(C)CNC(=O)NC(C)(C)CN1CCCCC1 (centres unmarked)
Ask | Between these two entries, I and II , state which has the higher Ki. Pick one; state its label.
Reply | II

P: CC(C)(C)NC(=O)NCC(C)(C)[C@@H](c1ccccc1)c1ccc2c(cnn2-c2ccc(F)cc2)c1
Q: CC(C)CC(c1ccc2c(cnn2-c2ccc(F)cc2)c1)C(C)(C)CNC(=O)OCC(F)(F)F (centres unmarked)
Ask | // max by Ki over [ P , Q ] // return label of chosen record
Reply | Q
(Q: 41 nM, P: 8.3 nM)
